Target: T1, TIAM2, Q8IVF5
T1 sequence (Q8IVF5 885-986, limits assumed, looked up): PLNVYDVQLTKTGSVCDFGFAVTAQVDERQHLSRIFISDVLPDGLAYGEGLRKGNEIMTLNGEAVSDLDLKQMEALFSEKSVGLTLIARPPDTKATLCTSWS
Experiment: holdup assay
Parameters: key: below the threshold = too weak to quantify, mostly under pKd 3.1 to 4
Conditions: plain residues with an end cap or a label only (N-terminal biotin on a linker: ado-ado)
OBSERVATION TYPE: pKd

BINDER: GSQSQVETEA [FKBP4, Q02790]
NUMERIC READOUT: 4.04
--
BINDER: STYCDYTIEI [FAM71C, Q8NEG0]
NUMERIC READOUT: 4.15
--
BINDER: PLPPEEESWV [GAS2L2, Q8NHY3]
NUMERIC READOUT: 4.17
--
BINDER: QKNKDREYYV [NRXN3, Q9HDB5]
NUMERIC READOUT: 4.41
--
BINDER: THREVKFTSL [CD46, P15529]
NUMERIC READOUT: 4.06
--
BINDER: GTMFLRETSL [GUCY1A2, P33402]
NUMERIC READOUT: 3.66
--
BINDER: DAAHHDESNC [FMNL3, Q8IVF7]
NUMERIC READOUT: 3.8
--
BINDER: AHGSTRDQSI [KCNB1, Q14721]
NUMERIC READOUT: 4.05
--
BINDER: RSPVATATSC [DUSP5, Q16690]
NUMERIC READOUT: 4.09
--
BINDER: QRYPGNQTTC [CCL24, O00175]
NUMERIC READOUT: 4.09
--
BINDER: ELKAEDEVQI [DCHS2, Q6V1P9]
NUMERIC READOUT: 3.52
